Origin of values: the RNAGym collection of RNA variant scans (doi:10.7554/elife.90254)

B1: LINE1-mini (parent)
chain: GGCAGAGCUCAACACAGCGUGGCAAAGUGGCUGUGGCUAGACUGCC

variants of: B1; test: self-cleavage, relative activity (ratio to wild type); higher = more cleavage; in vitro, sequencing; the parent is a self-cleaving ribozyme
Below, each entry is listed with its recorded self-cleavage.
Could you respond with only the numeric value?

Would you please look over these solved cases?
> print(dat)
     mutation    readoutname  reading
 1   U9C G36U  self-cleavage     0.03
 2  G17A A41G  self-cleavage     0.07
 3  A24C U32C  self-cleavage     0.05
 4  G35C G36A  self-cleavage     0.05
 5   C8A G35U  self-cleavage     0.44
 6  A14G G19A  self-cleavage     1.03
 7  G21A C37G  self-cleavage     0.04
 8   C3G U28C  self-cleavage     0.16
 9   U9C G36C  self-cleavage     0.03
10  A25C A39G  self-cleavage     0.07

Inquiry: Supply measured self-cleavage of G19C A39G in your reply.
Reply text: 0.02
